Cited source for all entries: the nanobody polyreactivity screen of Harvey et al. (2022)

test: yeast display, Sf9 membrane polyspecificity reagent, FACS + sequencing; frameworks hold sequencing errors

[
  {
    "Residues": "QVQLVESGGGLVQAGGSLRLSCAASGFTFDYYAMGWYRQAPGKERELVATINGASSTNYADSVKGRFTISRDNAKNTVYLQMNSLKPEDTAVYYCNARYYGPDFVLAYDYWGQGTQVTESS",
    "polyreactivity (PSR sort gate)": "low polyreactivity"
  },
  {
    "Residues": "QVQLVESGGGLVQAGGSLRLTCAASGRTFPGNAMGWYRQAPGKERELVAAISWSVDRTYYADSVKGRFTISRDNAKNTVYLQMNSLKPEDTAVYYCAAVHWWSSSLRMYYWGQGTQVTVSS",
    "polyreactivity (PSR sort gate)": "low polyreactivity"
  },
  {
    "Residues": "QVQLVESGGGLVQAGGSLRLSWAASGSTFVVNAMGWYRQAPGKERELVAAITQDGDGTYYADSVKGRFTISRDNAKNTVYLQMNSLKPEDTAVYYCAAYPFYGPYDEFDYWGQGTEVTVSS",
    "polyreactivity (PSR sort gate)": "low polyreactivity"
  },
  {
    "Residues": "QVQLVESGGGLVQAGGSLRLSCDASGNTFLWYAMGWYRQAPGKERELVAAITYSGGSTYYADSVKGRFTISRDNAKITVYLQMNSLKPEDTARYYCNADYFGYDYVEYGYWGQGTQVTVSS",
    "polyreactivity (PSR sort gate)": "low polyreactivity"
  }
]
